target: T1, Class I HLA molecule B*1501 in recombinant form (limits assumed); experiment: iTopia ELISA-like peptide-HLA binding
T1 MHC heavy: not shown
reported property: Bond results (%)
Answer format: numeric, % implied, no suffix.

Sample answers from the record:
{"columns": ["binder", "readout number"],
 "data": [
  ["SQIVSSSYL [VK3-20 peptide No 26 SQIVSSSYL]", 19],
  ["TQSPGTLSF [VK3-20 peptide No 5 TQSPGTLSF]", 44],
  ["ASQIVSSSY [VK3-20 peptide No 25 ASQIVSSSY]", 49],
  ["KPGQAPRLL [VK3-20 peptide No 40 KPGQAPRLL]", 0],
  ["SPRTFGQGT [VK3-20 peptide No 95 SPRTFGQGT]", 2],
  ["VSSSYLAWY [VK3-20 peptide No 29 VSSSYLAWY]", 2],
  ["IVLTQSPGT [VK3-20 peptide No 2 IVLTQSPGT]", 0],
  ["RTFGQGTKV [VK3-20 peptide No 97 RTFGQGTKV]", 4]
]}

Q) What value of Bond results has been recorded for this entry: GQAPRLLIY [VK3-20 peptide No 42 GQAPRLLIY]
A) 49

Q) What value of Bond results has been recorded for this entry: QQYGSSPRT [VK3-20 peptide No 90 QQYGSSPRT]
A) 24

Q) What value of Bond results has been recorded for this entry: FTLTISRLE [VK3-20 peptide No 72 FTLTISRLE]
A) 3

Q) What value of Bond results has been recorded for this entry: VYYCQQYGS [VK3-20 peptide No 86 VYYCQQYGS]
A) 1

Q) What value of Bond results has been recorded for this entry: RLLIYGASS [VK3-20 peptide No 46 RLLIYGASS]
A) 0

Q) What value of Bond results has been recorded for this entry: VLTQSPGTL [VK3-20 peptide No 3 VLTQSPGTL]
A) 0

Q) What value of Bond results has been recorded for this entry: IVSSSYLAW [VK3-20 peptide No 28 IVSSSYLAW]
A) 0

Q) What value of Bond results has been recorded for this entry: QYGSSPRTF [VK3-20 peptide No 91 QYGSSPRTF]
A) 2
